This listing pairs compounds with measured viability at 28.5 h, 10 µM.
assay: in vitro; conditions: human, hela cells, % viability

# compound, viability at 28.5 h, 10 µM, %
data = [
    ("COc1cccc(-n2cnc3cccc(N)c32)c1", 94.9),
    ("Cc1cc(NC(=O)c2nn3c(C(F)(F)F)cc(-c4ccccc4)nc3c2Cl)nn1CC(=O)N1CCOCC1", 105),
    ("O=[N+]([O-])c1cnc(NS(=O)(=O)c2ccc(Br)cc2C(F)(F)F)s1", 99.6),
    ("CCNC(=O)N1CC2(CCN(CC3COc4ccccc4O3)CC2)c2ccccc21 (stereo not shown)", 102),
    ("CS(=O)(=O)Nc1c[nH]nc1C1CCCN(c2cccc(F)c2C#N)C1 (stereo not shown)", 95.2),
    ("CCOc1ccsc1C(=O)NCc1ccc(OC2CCNCC2)cc1 [CBK036355T]", 106),
    ("N#CCCn1cc(C(=O)Nc2ccc(C(=O)O)cc2)c(-c2cc3ccccc3o2)n1", 96.6),
    ("COCCN1C(=O)c2ccc(C(=O)Nc3ccc(O)c(C(=O)O)c3)cc2C1=O", 102),
    ("CC(C)c1[nH]c2ncccc2c1CN1CCSCC1", 94),
    ("O=C(NCc1ccc2c(c1)CCCO2)C1CC2C=CC1C21CC1 (stereo not shown)", 89.1),
    ("O=C(c1ccc2[nH]c(=O)[nH]c2c1)N1CCC(Cn2cncn2)(C2CCCCC2)CC1", 104),
    ("COc1ccc(-n2nnc(C(=O)N3CCCCC3C(N)=O)c2C)cc1 (stereo not shown)", 98.1),
    ("CC1(C)CC(NC(=O)Cn2ccc3ccccc32)CCO1 (stereo not shown)", 98),
    ("O=C(CN1CCN(c2ccccc2)CC1)Nc1ccc([N+](=O)[O-])cc1C(=O)c1ccccc1", 89.6),
    ("CC(=O)N1CCCc2cc(C(O)CN3CCN(c4cccc(C)c4)CC3)ccc21 (stereo not shown)", 93.1),
    ("Fc1cccc(F)c1CN1CCN(CCc2ccccc2)CC1", 89.9),
    ("NC(=O)CN1CCN(c2nccnc2OCc2ccc(Cl)c(Cl)c2)CC1 [CBK083079T]", 111),
    ("COc1ccc(NC(=O)C2CCCCC2C(=O)O)c(C)c1 (stereo not shown)", 83.9),
    ("COc1cc(Nc2cc(-n3nc(C)cc3C)ncn2)cc(OC)c1OC", 93.2),
]

###

Entries and their measured viability at 28.5 h, 10 µM follow.
assay: in vitro; conditions: human, hela cells, % viability

# compound, unitInfo, viability at 28.5 h, 10 µM
data = [
    ("CCOC(=O)C(CNC(=O)c1c(C)nn(C)c1C)Cc1ccccc1 (centres unmarked)", "%", 90),
    ("Brc1cncc2c1ccn2CCN1CCOCC1", "%", 87.1),
    ("Cc1ccnc2nc(C(=O)OC(C)C(=O)N3CCCCCC3)nn12 (centres unmarked)", "%", 102),
    ("CCCN[C@@H]1CCc2cc(CNC(=O)c3ccc(C#N)cc3)ccc2C1 [CBK010211C]", "%", 101),
    ("CN(C)CCN1C(=O)CCc2ccccc21 [CBK023390C]", "%", 102),
    ("CN1CCN(CC(=O)C(C#N)c2ccccc2)CC1 (centres unmarked)", "%", 87.7),
    ("CC(C)c1ccc(S(=O)(=O)N2CC3CC2CO3)cc1 (centres unmarked)", "%", 97.3),
    ("CCN1CCN(c2ccc(Nc3ccnc4cc5ccccc5cc34)cc2)CC1", "%", 79.8),
    ("CCCc1nc(NC(CCO)c2ccc(C)cc2)c2cnn(C)c2n1 (centres unmarked)", "%", 85.3),
    ("CC(C)C1OC(NCc2ccc(Cl)cc2)=NC1=O (centres unmarked)", "%", 94.9),
    ("N#Cc1cccnc1N1CCC(NC(=O)c2cc(Cl)c[nH]c2=O)CC1", "%", 104),
    ("O=C(Cc1ccc(Cl)cc1Cl)Nc1ccc(-c2nnc3n2CCCCC3)cc1", "%", 94.8),
    ("O=C(NCCc1cccs1)Nc1cccc(SC(F)(F)F)c1", "%", 95),
    ("Fc1c(CN2CCOCC2)cccc1CN1CCOCC1", "%", 97.6),
    ("NC(=O)CN1CCC(Oc2cncc(OCCN3CCOCC3)n2)C1 (centres unmarked)", "%", 111),
    ("COc1cc(CN2CCCC3(CCN(C(=O)Cc4c[nH]c5ccccc45)C3)C2)cc(OC)c1OC (centres unmarked)", "%", 99.5),
    ("CCc1nc2ccc(C(=O)N3CCN(c4ccccc4)CC3)cn2c1N(C)C(=O)Nc1ccccc1OC", "%", 96.2),
    ("Cc1csc(C(C)NC(=O)NC2CCCN(c3ccn(C)n3)C2=O)n1 (centres unmarked)", "%", 107),
    ("CSc1ccc(-c2nccnc2OC(c2ccccc2)c2ccccc2)cc1", "%", 90.2),
    ("Cc1ccn(CCNC(=O)CCN2Cc3ccccc3C2=O)n1", "%", 86.4),
]

###

assay: in vitro; settings: human, hela cells, % viability

# compound, viability at 28.5 h, 10 µM
records = [
    ("COC(=O)C1C=C(NS(=O)(=O)c2ccc(-c3ccnc(SC)n3)s2)C=CC1 (stereo not drawn)", "104%"),
    ("O=C(O)c1cnc(-c2ccccc2)nc1", "93.2%"),
    ("O=C(NNC(=O)C1CCN(S(=O)(=O)c2ccc(Br)cc2)CC1)NC12CC3CC(CC(C3)C1)C2", "94.5%"),
    ("O=C(N/N=C/c1ccc(OC(=O)c2cccs2)cc1)c1ccccn1", "107%"),
    ("CCN(CC)C(=O)CN1CCC(Oc2nccnc2OCc2cc(C)on2)CC1 [CBK082959T]", "102%"),
    ("CC(Oc1cccc(Cl)c1)c1nc(-c2cccs2)no1 (stereo not drawn)", "90.8%"),
    ("COc1cc(CNC(=O)c2cncc(-c3ccc(C(=O)N4CCOCC4)cc3)c2)cc(OC)c1OC", "114%"),
    ("O=C(NCCc1cccnc1)Nc1ccc(CN2CCCC2=O)cc1", "80%"),
    ("CCN(CC)CCN(C)C1CCN(C)CC1", "94.7%"),
    ("O=C(Cc1ccc(-c2ccccc2)cc1)N1CCc2nc3ccccc3c(=O)n2CC1", "97.2%"),
    ("CCOc1cc(/C=c2/sc3nc(=O)c(Cc4ccccc4)nn3c2=O)ccc1OC(C)=O", "89.2%"),
    ("O=c1c2ccccc2[nH]c(=S)n1CCCN1CCC(Cc2ccccc2)CC1", "86.2%"),
    ("COCCn1nnnc1C(c1cc2c(C)ccc(C)c2[nH]c1=O)N1CCN(C(=O)c2ccco2)CC1 (stereo not drawn)", "98.6%"),
    ("O=C(COc1ccc2ccccc2c1Br)NCCN1CCOCC1", "89.7%"),
    ("COc1cc(OC)nc(CN2C(=O)CC3(C2=O)C(=O)N(CCCN(C)C(=O)c2ccco2)c2ccc(F)cc23)n1 (stereo not drawn)", "85.6%"),
    ("O=C(CCc1ccccc1)NC(=S)Nc1ccc(-c2nc3ccccc3[nH]2)cc1", "77.1%"),
    ("COc1ccccc1CC(=O)N1CCC(c2onc3c2CCC3)CC1", "99.2%"),
    ("CNC(=O)c1c(NC(=O)c2nc(SCc3ccccc3)ncc2Cl)sc2c1CCCC2", "93.9%"),
]

###

experiment: in vitro; details: human, hela cells, % viability
Assign labels as follows, please: Met for viability at 28.5 h, 10 µM below 90%; Not met for viability at 28.5 h, 10 µM equal to or exceeding 90%.

# molecule, label
measured = [
    ("COc1ccc(-c2nnc(SCC(=O)O)n2C)cc1 [CBK287232]", "Not met"),
    ("O=C(c1cccnc1)C1CCN(C(=O)Cc2ccc(Cl)cc2)CC1 [CBK283813]", "Met"),
    ("Cc1nn(CC(=O)NC2CCCC2)c(=O)c2cc3sccc3n12 [CBK284023]", "Not met"),
    ("Oc1ccccc1/C=N/Nc1nnc(-c2ccccc2)c(-c2ccccc2)n1 [CBK262003]", "Not met"),
    ("OCc1cccc(-c2cc(NCc3ccccc3)n3nccc3n2)c1 [CBK037113]", "Not met"),
    ("N#C/C(=C/c1ccc(-c2ccc(S(N)(=O)=O)cc2)o1)C(=O)Nc1ccccc1 [CBK263123]", "Not met"),
    ("CC(=O)NCCn1cc2c(n1)[C@H]1CN(C(=O)C(C)(C)C)C[C@H]1CC2 [CBK282168]", "Not met"),
    ("CCOC(=O)c1cc(C)sc1NC(=O)CCC(=O)O [CBK265412]", "Not met"),
    ("CC(Cc1cccs1)NC(=O)CSCc1ccco1 (stereo not shown) [CBK283238]", "Met"),
    ("CC(=O)N1CCC2(C/C=C/C[C@H]3CN(C(=O)C4CCC4)CC[C@H]3NC(=O)CNC2=O)CC1 [CBK292108]", "Not met"),
    ("COc1ccc(CNC(=O)C[C@@H]2[C@H](O)CCC3[C@]4(C)CO[C@@H](CN)O[C@@H]4CC[C@]32C)cc1 (stereo partly shown) [CBK289575]", "Not met"),
]
